Can you tell me protein stability index for the items I'm about to list?
B1: CASP6 (parent)
chain: TCADRDNLTRRFSDLGFEVKCFND

Variants of: B1
Assay: protein stability index of a GFP-peptide fusion (GPS, HEK-293T) (PSI 1-6); higher = more stable;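 note: lentivirally expressed fusions sorted by FACS into six bins by GFP to DsRed ratio, PSI derived from sequencing read proportions per bin multiplied by bin number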
Conditions: c terminus: a fixed tail appended
Please reply with the value in numeric form only.

Ask: Annotate the variant A3R with its measured protein stability index.
Reply: 2.97

Ask: Quick one: give measured protein stability index for R5H
Reply: 2.86

Ask: # return recorded protein stability index for input F22R
Reply: 3.73

Ask: In one line, give reported protein stability index of the entry T1S .
Reply: 3.28

Ask: Give a short answer stating reported protein stability index for C2A .
Reply: 4.04

Ask: Look up and report measured protein stability index for this entry: D4H
Reply: 2.96

Ask: Answer with the recorded protein stability index for the variant listed here: L8S
Reply: 3.82

Ask: // Input: D4L . Output its protein stability index only.
Reply: 2.21

Ask: Determine its reported protein stability index: D24G
Reply: 2.66

Ask: Complete the entry with protein stability index for F22C
Reply: 3.83

Ask: Return value of protein stability index for input R5C , no commentary.
Reply: 2.65

Ask: Quick one: give measured protein stability index for D6S
Reply: 3.01

Ask: Identify protein stability index associated with the variant A3V
Reply: 3.52

Ask: Hello, please tell me recorded protein stability index for this one: L15M
Reply: 3.85

Ask: Using the record for R5P , state its measured protein stability index.
Reply: 3.98

Ask: Indicate its recorded protein stability index; the variant in question is R10C
Reply: 2.59

Ask: Give a short answer stating reported protein stability index for F22W .
Reply: 3.28

Ask: Using known records, supply protein stability index for E18S
Reply: 2.89

Ask: Using known records, supply protein stability index for T9V
Reply: 3.58

Ask: Name the recorded protein stability index of the item D4W in your answer.
Reply: 3.54

Ask: Give the reported value of protein stability index for this record: V19R
Reply: 3.48

Ask: Report protein stability index for F12W
Reply: 3.1

Ask: Please report the measured protein stability index for S13H
Reply: 2.88

Ask: Quote protein stability index reported for D24Y please.
Reply: 2.04

Ask: Quickly give me recorded protein stability index for D4Q
Reply: 3.36

Ask: Return value of protein stability index for input V19Y , no commentary.
Reply: 3.5

Ask: Given the variant C2V , write its reported protein stability index.
Reply: 3.93

Ask: For the variant D24L , report protein stability index.
Reply: 2.17

Ask: Specify protein stability index for L15P and stop.
Reply: 4.59

Ask: Using known records, supply protein stability index for F22V
Reply: 3.93

Ask: Give protein stability index for T9L
Reply: 3.12

Ask: Recall and state the measured protein stability index for S13T .
Reply: 2.58

Ask: Supply recorded protein stability index for K20F here.
Reply: 2.87

Ask: Answer with the recorded protein stability index for the variant listed here: D14R
Reply: 2.45

Ask: Identify measured protein stability index associated with C21N
Reply: 3.82

Ask: Return reported protein stability index. Input variant: A3F
Reply: 2.52

Ask: Using the record for E18V , state its measured protein stability index.
Reply: 2.82

Ask: For C21D , write its protein stability index.
Reply: 4.17

Ask: Input S13V , output reported protein stability index.
Reply: 2.32

Ask: For the variant E18K , give its measured protein stability index value.
Reply: 3.3

Ask: Input D24K , output reported protein stability index.
Reply: 3.02

Ask: Give me measured protein stability index, please, for this variant: D4K
Reply: 3.37

Ask: Find the measured protein stability index of R10A and report it.
Reply: 3.59

Ask: Specify protein stability index for R10D and stop.
Reply: 3.96

Ask: Complete the entry with protein stability index for F17Y
Reply: 2.62

Ask: Look up and state reported protein stability index for R11M
Reply: 3.79

Ask: Provide one value: measured protein stability index of N7L
Reply: 2.98

Ask: Read the entry S13R and write its reported protein stability index.
Reply: 2.98

Ask: Find the measured protein stability index of K20I and report it.
Reply: 2.42

Ask: Supply protein stability index value. Item: L15W
Reply: 2.75

Ask: Name the recorded protein stability index of the variant listed here: N23H
Reply: 2.71

Ask: Indicate the recorded protein stability index value for this variant: R11L
Reply: 3.12

Ask: Please report the measured protein stability index for F17C
Reply: 3.36

Ask: Let me know recorded protein stability index for T1A , thanks.
Reply: 3.73

Ask: Give the value of protein stability index reported for the following: R10G
Reply: 3.48

Ask: Quickly give me recorded protein stability index for T1L
Reply: 3.1

Ask: Recall and state the measured protein stability index for T9W .
Reply: 2.34

Ask: Please report protein stability index for the following variant: E18M
Reply: 2.22

Ask: Determine from records and report protein stability index for G16R
Reply: 3.13

Ask: Find the measured protein stability index of C2K and report it.
Reply: 3.51

Ask: Give the value of protein stability index reported for the following: D6W
Reply: 2.09

Ask: Quick one: give measured protein stability index for C21R
Reply: 3.72

Ask: Please list protein stability index recorded for the variant V19N
Reply: 3.9

Ask: Provide protein stability index value for the following variant: D6K
Reply: 2.75

Ask: Using the record for D4E , state its measured protein stability index.
Reply: 3.74

Ask: Complete the entry with protein stability index for D14E
Reply: 3.34

Ask: // Input: C2M . Output its protein stability index only.
Reply: 3.38

Ask: Supply protein stability index value. Item: T1K
Reply: 3.07
